STUDY_TARGET: T1, GFP-His6 (eGFP) (Aequorea victoria, UniProt P42212 2-238 = GFP)
T1 construct: SPR and bead assays speak only of recombinant GFP or eGFP; also called recombinant GFP; A. victoria (Av) GFP
METHOD_DESCRIPTION: label under gel lane; legend: in vitro Kd for GFP by SPR
The binders listed here are annotated with their pKd.
Scale for pKd: -log10 of concentration given in mol/L; no unit attached.

Please review the entries below; each comes with its answer.
Reported pKd of LaG-43 (VHH) VHH: DVQLVESGGGLVQPGGSLRLSCEASGGAFSTVAMGWFRQAPGKEREFVGAITWTAGSTYYADSAKGRFTISRDNAKNTVHLQMNSLKPEDTAVYYCAQRVRGFFGPLRTTPSWYEYWGQGTQVTVS : 7.89

Per the record, LaG-35 (VHH) VHH: DVQLVESGGGLVQAGGSLRLSCTVSGRTFSNYAMGWFRQAPGKEREFVAGISWTGGHTLYTDSVKGRFTISRDNAKNTVYLQMNSLKPEDTALYYCAADRAADFFAQRDEYDYWGQGTQVTVS has pKd of 7.62

Value of pKd reported for the binder LaG-37 (VHH) VHH: QVQFVESGGGTVQDGDFLRLSCTASGDTFSNYHAGWFRQPPGREREFVAAISWTGEGTLYADSVKGQFTISRDNAKNAMYLQMNRLKPEDTAVYYCAAARSVGFTWRSSKSNDYAYWGQGTQVTV is 7.60

Record summary for LaG-11 (VHH) VHH: DVQLVESGGRSVRAGDSLRLSCLASGGTFSLYAMGWFRQAPGKEREFVAAVTWSGGSTYYTDSVKGRFSISRDNAKNTVYLQMNSLKPEDTAVYYCAVRTSGFFGSIPVTERAFDYWGQGTQVTVS : reported pKd = 4.64

The measured pKd associated with LaG-9 (VHH) VHH: DVQLVESGGGLVQAGGSLRLSCAASGRTFSTSAMGWFRQAPGKEREFVARITWSAGYTAYSDSVKGRFTISRDKAKNTVYLQMNSLKPEDTAVYYCASRSAGYSSSLTRREDYAYWGQGTQVTVS reads 8.46

Further cases:
// sample LaG-24 (VHH) VHH: DVQLVESGGGLVQPGGSLRLSCAASGEIASIIAIGWYRQAPGKQRESVALITRSGMITYGDSAQGRFTISRDDAKNTVYLHMDDLVPEDTAVYYCNAKKVSFGDYWGQGTQVTVS , its pKd was 7.46
